Kindly supply the reported log10(koff) values for the records listed here.
# ASSAYED_SYSTEM: T1, AAV9 (adeno-associated virus serotype 9)
# T1 construct: also called adeno-associated virus serotype 9
# TEST_NAME: SPR, AAV on CM5 chip;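 also: surface plasmon resonance with AAV amine-coupled to the chip as ligand, nanobodies injected as analyte over a concentration series, rate constants and affinity fitted from binding curves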
Values are log10 of koff in s⁻¹.

A4-102 (VHH) VHH: VQLQESGGGLVQPGGSLRLSCAASGSHFTINSVGWYRQAPGKQRELVAPVTRGGTTNYADFVKGRFTISRDNAKNTVYLQMNSLRPEDTAVYYCHVDELRDSSWTTSNLWGQGTQVTVSS
-2.33
A4-110 (VHH) VHH: VQLQESGGGLVQPGGSLRLSCFASGTNFSINVVGWYRQAPGKQRELVATITRGGSTNYAESVKGRFTISRDNAKNTVYLQMNNLRPEDTAVYYCHLDEVRDSSWTTSNLWGQGTQVTVSS
-2.85
A4-112 (VHH) VHH: VQLQESGGGLVQTGGSLRLSCIASGSIFSINTVGWYRQAPPKQRELVATVTRAGSTWYAGSVKGRFTISRDNAKNTIYLQMNTLRPEDTAVYYCHVDEVRQSTWTTSNIWGQGTQVTVSS
-2.28
A4-108 (VHH) VHH: VQLQESGGGLAQPGGSLRLSCLASGSGFSINTMGWYRQAPPKWRELVATVTRGGSTNYAGSVKGRFTISRDNPKNTVYLQMNSLRPEDTAVYYCHLDEVRQSTWTTSNIWGQGTQVTVSS
-3.21
A4-101 (VHH) VHH: VQLQESGGGLVQPGGSLRLSCAASGSRFSINIMGWYRQAPGKQRELVASVTRGGTTNYADSVKGRFTISRDNPKNTIYLQMNSLRPEDTAVYYCHVDEIRESTWTTSNLWGQGTQVTVSS
-4.05

Incoming: Tell me the measured log10(koff) of A4-104 (VHH) VHH: VQLQESGGGLVQPGGSLRLSCAASGSIFSLNSMGWYRQAPGKQRELVATITSGGSTNYAGSVKGRFTISRDNAKNTVYLQMNNLQPEDTAVYYCHVDEVRESSWTTSNLWGQGTQVTVSS , please.
Outgoing: -3.03
